Here the recorded JAK2/JAK1 is given for each entry.
# System: human JAK1
# Protocol: In vitro JAK kinase assay (HTRF, phosphorylation of a biotinylated peptide), JAK1
# Type: biochemical
# Condition: ratio of IC50s, 1 mM ATP
Endpoint Name: JAK2/JAK1

* C[C@@H](O)c1nc2cnc3ccsc3c2n1C1CCN(CC(F)(F)F)CC1 | >9
* C[C@@H](O)c1nc2cnc3ccsc3c2n1[C@H]1CCCN(CCC#N)C1 | >10
* C[C@@H](O)c1nc2cnc3ccsc3c2n1C1CCCCC1 | >10
* C[C@@H](O)c1nc2cnc3ccsc3c2n1C1CCC(NCCC#N)CC1 (single isomer, unassigned) [30 (second peak)] | >10
* C[C@@H](O)c1nc2cnc3ccsc3c2n1[C@H]1CC[C@H](CF)CC1 | >10
